Where do these numbers come from? They come from PubChem BioAssay (NCI).

Measured TGI values are reported for all entries that follow.
Test system: SW-620 colon
testSummary: NCI tumour cell line growth inhibition, 48 h

Recorded results for 4 molecules are shown here.
O=C(COc1ccc(OCC(=O)N2C(=O)CSC2=Nc2ccccc2)cc1)N1C(=O)CSC1=Nc1ccccc1 :: > 100 µM
COc1ccc2c(=O)c3ccoc3n(CC=C(C)C)c2c1 :: > 100 µM
C=C1C(=O)O[C@H]2[C@H]1CC/C(Cn1cc(-c3cc(C(F)(F)F)cc(C(F)(F)F)c3)nn1)=C\CC[C@@]1(C)O[C@@H]21 :: 0.399 µM
O=C(c1ccco1)c1nc2cc(Cl)ccc2[n+]([O-])c1C(F)(F)F :: > 100 µM

**Query** Need TGI of `Clc1cc(Cc2cc(Cl)c(Cl)c3c2OCOC3)c2c(c1Cl)COCO2` , thanks.
**Result** > 100 µM

**Query** Would you mind telling me what TGI value was observed for `COc1cc(OC)c2c(=O)cc(-c3ccccc3F)[nH]c2c1` ?
**Result** > 100 µM

**Query** Form field: reported TGI of `CC[C@H](Nc1nc(NCc2cnc(C)cc2C)c2ncn(C(C)C)c2n1)[C@@H](C)O`
**Result** > 21.9 µM

**Query** If you can, please state the reported TGI value of COC(=O)C(=O)OC1(C(C)=O)CC2(c3ccccc3)OC1(c1ccccc1)c1ccccc12 (centres undefined) .
**Result** 30.3 µM

**Query** Returns the measured TGI for the input molecule. Input: `O=C1/C(=C/c2ccccc2)CN(C(=O)c2cccnc2)C/C1=C\c1ccccc1`
**Result** 1.8 µM
